assay: Selectivity index, ratio of CC50 for MDCK cells to IC50 for Influenza A virus (A/Puerto Rico/8/34(H1N1)) […] infected in MDCK cells; assay type: toxicity, cell-based; conditions: dog, read-out: Ratio CC50/IC50
Result Type: selectivity ratio
Respond with the number and no other words.

Request: Field request: selectivity ratio | item: Clc1ccc(N2CCN=C2c2ccc(C3=NCCN3c3ccc(Cl)cc3)cc2)cc1
Result: 2

Request: What about this molecule? COc1ccc(N2CCN=C2c2ccc(C3=NCCN3c3ccc(OC)cc3)cc2)cc1
Result: 23

Request: Ok, now Fc1ccc(N2CCN=C2c2ccc(C3=NCCN3c3ccc(F)cc3)cc2)cc1
Result: 12

Further cases:
Request: // returns reported selectivity ratio for input FC(F)(F)c1ccc(N2CCN=C2c2ccc(C3=NCCN3c3ccc(C(F)(F)F)cn3)cc2)nc1
Result: 4

Request: Next record, please: c1ccc(N2CCN=C2c2ccc(C3=NCCN3c3ccccn3)cc2)nc1
Result: 4

Request: Proceed to COc1ccc(N2CCN=C2c2ccc(C3=NCCN3)cc2)cc1
Result: 5

Request: Next molecule up: CC(N)C12CC3CC(CC(C3)C1)C2 (stereo unspecified)
Result: 6

====

Reported log10 of CC50 at 24 h values follow for various molecules
assay: Cytotoxicity against MDCK cells after 24 hrs by MTT assay; type: cell-based, Canis lupus familiaris; conditions: dog
Note the log scale: values are log10 of CC50 at 24 h expressed in µM.

Some molecules with recorded log10 of CC50 at 24 h:
Request: Param item = Clc1ccc(N2CCN=C2c2ccc(C3=NCCN3c3ccc(Cl)cc3)cc2)cc1 ; retrieve measured log10 of CC50 at 24 h.
Result: 0.95

Request: Ok, now FC(F)(F)c1ccc(N2CCN=C2c2ccc(C3=NCCN3c3ccc(C(F)(F)F)cn3)cc2)nc1
Result: 2.66

Request: Similarly, c1ccc(N2CCN=C2c2ccc(C3=NCCN3c3ccccn3)cc2)nc1 ?
Result: 2.10

More entries:
Request: Would you kindly share the measured log10 of CC50 at 24 h for COc1ccc(N2CCN=C2c2ccc(C3=NCCN3)cc2)cc1 ?
Result: 2.35

Request: Next: COc1ccc(N2CCN=C2c2ccc(C3=NCCN3c3ccc(OC)cc3)cc2)cc1
Result: 2.56

Request: Same again, this time with Fc1ccc(N2CCN=C2c2ccc(C3=NCCN3c3ccc(F)cc3)cc2)cc1
Result: 2.16

Request: Proceed to CC(N)C12CC3CC(CC(C3)C1)C2 (configuration not stated)
Result: 1.79

====

experiment: Selectivity index, ratio of CC50 for MDCK cells to IC50 for Influenza A virus (A/Puerto Rico/8/34(H1N1)) […] infected in MDCK cells; format: toxicity, cell-based; conditions: dog, read-out: Ratio CC50/IC50
Listing: selectivity ratio of selected compounds

Worked set:
Request: Suppose we examine the compound Fc1ccc(N2CCN=C2c2ccc(C3=NCCN3)cc2)cc1 ; what selectivity ratio value has been reported?
Result: > 15

Request: Queued: c1cncc(N2CCN=C2c2ccc(C3=NCCN3c3cccnc3)cc2)c1
Result: > 12

Request: Repeat for the following compound: c1ccc(N2CCN=C2c2ccc(C3=NCCN3c3ccccc3)cc2)cc1
Result: > 11

Moving on to the next compound.
Request: Tell me the measured selectivity ratio of c1ccc(N2CCN=C2c2ccc(C3=NCCN3)cc2)cc1 , please.
Result: > 34

====

assay: Cytotoxicity against MDCK cells after 24 hrs by MTT assay; type: cell-based, Canis lupus familiaris; conditions: dog
Result Type: CC50 at 24 h

Solved entries:
Request: Requested read-out: CC50 at 24 h. Entry: c1ccc(N2CCN=C2c2ccc(C3=NCCN3c3ccccc3)cc2)cc1
Result: > 817 µM

Request: Continue with Fc1ccc(N2CCN=C2c2ccc(C3=NCCN3)cc2)cc1
Result: > 971 µM

Request: Also, c1cnc(N2CCN=C2c2ccc(C3=NCCN3c3cnccn3)cc2)cn1 please.
Result: > 809 µM

Request: // repeat for c1ccc(N2CCN=C2c2ccc(C3=NCCN3)cc2)cc1 and report
Result: > 1030 µM

Turning to the following molecule.
Request: Any idea what its CC50 at 24 h is? The molecule is c1cncc(N2CCN=C2c2ccc(C3=NCCN3c3cccnc3)cc2)c1
Result: > 813 µM

These entries and their values trace back to ChEMBL document CHEMBL4325883.
